I'd appreciate it if you could supply Ki values for the items below.
- test system: glucocorticoid receptor (GR) (Homo sapiens)
- Sequence (P04150 1-777): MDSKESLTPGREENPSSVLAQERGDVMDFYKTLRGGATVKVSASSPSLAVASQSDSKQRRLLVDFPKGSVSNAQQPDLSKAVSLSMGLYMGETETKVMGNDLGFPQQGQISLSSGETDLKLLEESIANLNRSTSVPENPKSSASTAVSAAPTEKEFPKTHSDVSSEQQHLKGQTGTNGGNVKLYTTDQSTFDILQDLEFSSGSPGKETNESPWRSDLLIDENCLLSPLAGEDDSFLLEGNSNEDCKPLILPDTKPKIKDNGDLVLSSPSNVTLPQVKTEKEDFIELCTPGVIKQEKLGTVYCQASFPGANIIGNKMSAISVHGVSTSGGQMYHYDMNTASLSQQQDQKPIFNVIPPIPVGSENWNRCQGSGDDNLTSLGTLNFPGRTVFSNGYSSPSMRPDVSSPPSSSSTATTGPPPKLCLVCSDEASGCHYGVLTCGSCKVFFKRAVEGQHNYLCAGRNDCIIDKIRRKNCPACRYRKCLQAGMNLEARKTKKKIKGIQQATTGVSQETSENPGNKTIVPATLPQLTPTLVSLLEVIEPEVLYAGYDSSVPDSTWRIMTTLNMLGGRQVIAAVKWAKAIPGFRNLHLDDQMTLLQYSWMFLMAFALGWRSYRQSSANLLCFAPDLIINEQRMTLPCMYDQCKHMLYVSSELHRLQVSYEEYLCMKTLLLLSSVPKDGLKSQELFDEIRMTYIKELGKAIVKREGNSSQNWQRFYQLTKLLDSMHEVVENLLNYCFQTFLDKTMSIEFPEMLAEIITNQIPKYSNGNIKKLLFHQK
- assay comment: Ligand binding assay (GR BIND), 3H-dexamethasone displacement in MDA-MB-453 cell lysate
- condition info: GR BIND Ki, Table 1
Units required after the number.

Recorded Ki, per entry:
molecule | value kind | value measured
C[C@]12Cc3cnn(-c4ccc(F)cc4)c3C=C1CC[C@@H]2C(=O)N(Cc1ccc(Cl)cc1Cl)CC1CC1 | Ki | 1.3 nM
COc1ccccc1CN(C)C(=O)[C@H]1CCC2=Cc3c(cnn3-c3ccc(F)cc3)C[C@@]21C | Ki | 9 nM
C[C@]12Cc3cnn(-c4ccccc4)c3C=C1CC[C@@H]2C(=O)N(CC1CC1)CC(O)C(F)(F)F (stereo partly shown) | Ki | 3.6 nM

Could you now consider this next molecule?
Looking up `CCCCN(CC)C(=O)[C@H]1CCC2=Cc3c(cnn3-c3ccc(F)cc3)C[C@@]21C` , I see its Ki listed as 1.4 nM
